# Test system: Rat-1/CD40 CI.8 cell line
# Method Notes: MTT colorimetric cell growth assay (Mossman), CD40-transfected Rat-1 fibroblasts
# Type: cell-based
# Test Parameters: cis-platin without G28.5 mAb; spread +/- 0.9
Value Type: IC50 (µM)
Numbers only, in µM.

Would you mind telling me what IC50 value was observed for N.N.[Cl][Pt][Cl] [cis-platin] ?
6

This collection of values is drawn from patent EP0806963B1.
